Target: T1, rat VPAC1 receptor (rat, UniProt P30083 31-459)
T1 sequence (looked up): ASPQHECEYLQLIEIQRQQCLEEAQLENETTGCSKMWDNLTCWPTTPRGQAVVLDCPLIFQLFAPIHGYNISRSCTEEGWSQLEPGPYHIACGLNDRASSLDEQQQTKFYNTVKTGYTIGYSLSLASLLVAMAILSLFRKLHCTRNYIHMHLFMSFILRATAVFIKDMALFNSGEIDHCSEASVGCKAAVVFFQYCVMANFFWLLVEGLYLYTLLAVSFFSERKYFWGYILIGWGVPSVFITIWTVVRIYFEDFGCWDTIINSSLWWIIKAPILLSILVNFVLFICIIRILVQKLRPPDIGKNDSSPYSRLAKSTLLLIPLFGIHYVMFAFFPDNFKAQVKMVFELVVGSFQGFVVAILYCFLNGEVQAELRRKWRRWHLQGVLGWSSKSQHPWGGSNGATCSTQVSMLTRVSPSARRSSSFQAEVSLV
Experiment: cell-based or functional assay
Square brackets hold non-standard residues; d marks the D form. Ends that are not written are not given here. * marks the point of attachment. Orn = NCCC[C@H](N)C(=O)O; Hexanoyl = CCCCCC(=O)*; Aib = CC(C)(N)C(=O)O
Measured Rat VPAC1 Receptor: DiscoveRx (EC50; nM), cAMP generation values are reported for all entries that follow.

Some binders with recorded Rat VPAC1 Receptor: DiscoveRx (EC50; nM), cAMP generation:
binder	valueMeasured
Hexanoyl-HSDAVFTDNYTLLR[Aib]QVAA[Aib]KYLQSI[Orn]N[Orn]GGPSSGAPPPS [VPAC2 receptor peptide agonist P367]	75.3 nM
Hexanoyl-HSEAVFTENYT[Orn]LR[Aib]QVAA[Aib]KYLQSI[Orn]N[Orn]GGPSSGAPPPS [VPAC2 receptor peptide agonist P362]	35.9 nM
HSDAVFTDNYTXLRXQVSAXKYLQSIXNXGGPSSGAPPPS (N-terminal hexanoyl (C6); Orn at 12, 27 and 29; Aib at 15 and 20) [VPAC2 receptor peptide agonist P388]	> 2000 nM
Hexanoyl-HSDAVFTDNYTRLLAKLALQKYLQSI[Orn]N[Orn]GGPSSGAPPPS [VPAC2 receptor peptide agonist P370]	0.05 nM
HSDAVFTDNYTXLRXQVAAXKYLQSIKNKRYGGPSSGAPPPS (N-terminal hexanoyl (C6); hR (homoarginine) at 12; Aib at 15 and 20) [VPAC2 receptor peptide agonist P343]	2.62 nM

Here's the next entry for you.
Looking up HSDAVFTDNYTXLRXQVAAXKYLQSSXNXGGPSSGAPPPS (N-terminal hexanoyl (C6); Orn at 12, 27 and 29; Aib at 15 and 20) [VPAC2 receptor peptide agonist P382] , I see its Rat VPAC1 Receptor: DiscoveRx (EC50; nM), cAMP generation listed as 8.21 nM
